Tested on: primary human fibroblasts derived from IPF patients (LL29 cells) treated with TGF-β1
Assay: Inhibition of the fibrotic process: αSMA staining in TGF-β1 treated LL29 fibroblasts
Format: cell-based
Details: Fibroblast, read-out: percent inhibition at 10 μM
Some compounds, each annotated with its measured inhibition at 10 µM.
For clarity, give the value followed by its unit.

>>> test_result("c1cncc(-c2ccc3[nH]nc(-c4cc5c(N6CCCCC6)ccnc5[nH]4)c3c2)c1")
"25.1%"
>>> test_result("CC(C)(C)C(=O)Nc1cncc(-c2ccc3[nH]nc(-c4cc5c(-c6ccc(F)cc6)ccnc5[nH]4)c3c2)c1")
"0%"

// returns reported inhibition at 10 µM for input `Cc1ncc(-c2ccc3[nH]nc(-c4cc5c(-c6ccncc6)ccnc5[nH]4)c3c2)n1C`
113%

Proceed to `c1cncc(-c2ccnc3[nH]c(-c4n[nH]c5ccc(-c6cncc(CN7CCCCC7)c6)cc45)cc23)c1`
4%

And then `c1ncc(-c2ccc3[nH]nc(-c4cc5c(-c6ccsc6)ccnc5[nH]4)c3c2)cn1` , what is it?
0%

Same for `CC(C)C(=O)Nc1cncc(-c2ccc3[nH]nc(-c4cc5c(-c6ccccc6F)ccnc5[nH]4)c3c2)c1`
11.7%

// same read-out, input: `COc1cncc(-c2ccc3[nH]nc(-c4cc5c(-c6ccoc6)ccnc5[nH]4)c3c2)c1`
0%

Another compound: `O=C(Cc1ccccc1)Nc1cncc(-c2ccc3[nH]nc(-c4cc5c(N6CCCCC6)ccnc5[nH]4)c3c2)c1`
0%

Note, next up: `CN(C)Cc1cncc(-c2ccc3[nH]nc(-c4cc5c(N6CCCCC6)ccnc5[nH]4)c3c2)c1`
9.1%

Lookup `CC(C)(C)C(=O)Nc1cncc(-c2ccc3[nH]nc(-c4cc5c(-c6cccs6)ccnc5[nH]4)c3c2)c1`
0%

Try the compound `c1cc(-c2ccsc2)c2cc(-c3n[nH]c4ccc(-c5cncc(CN6CCCCC6)c5)cc34)[nH]c2n1`
16.8%

What do you get for `c1ccc(-c2ccc3[nH]nc(-c4cc5c(-c6ccoc6)ccnc5[nH]4)c3c2)nc1` ?
0%

What would you report for `O=C(Nc1cncc(-c2ccc3[nH]nc(-c4cc5c(-c6ccncc6)ccnc5[nH]4)c3c2)c1)C1CCC1` ?
0%

Same question, `O=C(Nc1cncc(-c2ccc3[nH]nc(-c4cc5c(-c6ccccc6F)ccnc5[nH]4)c3c2)c1)C1CCCC1` this time
39%

How about `CCCCC(=O)Nc1cncc(-c2ccc3[nH]nc(-c4cc5c(-c6ccccc6F)ccnc5[nH]4)c3c2)c1` ?
29.1%

Try `c1cc(-c2ccnc3[nH]c(-c4n[nH]c5ccc(-c6cncnc6)cc45)cc23)ccn1` next.
14.5%

Would you mind doing `CC(C)(C)CC(=O)Nc1cncc(-c2ccc3[nH]nc(-c4cc5c(-c6ccoc6)ccnc5[nH]4)c3c2)c1` as well?
0%

----------
System: primary human mesenchymal stem cells (hMSCs)
Experiment: Induction of chondrogenesis in human mesenchymal stem cells (nodule area, Rhodamine B/Nile Red)
Format: cell-based
Conditions: hMSC chondrogenesis, relative to TGF-β3 (10 ng/mL) positive control, read-out: Max. Activity as % TGF-β3 activity
QUANTITY_KIND: Emax (%)
# output: bare number, implied unit %

>>> test_result("FC1(F)CCN(Cc2cncc(-c3ccc4[nH]nc(-c5cc6c(-c7cccnc7)ccnc6[nH]5)c4c3)c2)C1")
20
>>> test_result("CN(C)Cc1cncc(-c2ccc3[nH]nc(-c4cc5c(-c6cccc(F)c6)ccnc5[nH]4)c3c2F)c1")
21

Fill in: Emax of `c1cc(N2CCCCC2)c2cc(-c3n[nH]c4ccc(-c5cncc(CN6CCCC6)c5)cc34)[nH]c2n1` is ___
21

Same lookup for `CN1CCN(c2ccnc3[nH]c(-c4n[nH]c5ccc(-c6cncc(N)c6)cc45)cc23)CC1` , please.
50

Next entry: `O=C(Nc1cncc(-c2ccc3[nH]nc(-c4cc5c(-c6cccnc6)ccnc5[nH]4)c3c2)c1)C1CCCCC1`
39

Lookup `COc1cncc(-c2ccc3[nH]nc(-c4cc5c(-c6ccoc6)ccnc5[nH]4)c3c2)c1`
26

Then `CC(C)CC(=O)Nc1cncc(-c2ccc3[nH]nc(-c4cc5c(-c6cccnc6)ccnc5[nH]4)c3c2)c1` ?
104

Note, next up: `CN1CCN(c2ccnc3[nH]c(-c4n[nH]c5ccc(-c6cncc(CNCc7ccccc7)c6)cc45)cc23)CC1`
17

Same again, this time with `Fc1ccc(-c2ccnc3[nH]c(-c4n[nH]c5ccc(-c6cncc(CN7CCCC7)c6)cc45)cc23)cc1`
22

Continue with `c1cncc(-c2ccc3[nH]nc(-c4cc5c(-c6cccnc6)ccnc5[nH]4)c3c2)c1`
17

----------
System: Wnt activity (Sp5-Luc reporter, SW480 colon carcinoma cells)
Assay: Wnt activity screening assay, Sp5-Luc reporter gene in SW480 cells
Assay type: cell-based
Settings: Homo sapiens, SW480; read-out: percent inhibition at 10 μM
Protocol: The screening assay for Wnt activity is described as follows. […] SW480 colon carcinoma cells were transduced with a lentiviral vector expressing luciferase with a human Sp5 promoter consisting of a sequence of eight TCF/LEF binding sites. […] Following incubation, 20 μl of BrightGlo luminescence reagent (Promega) was added to each well of the 384-well assay plates. The plates were placed on an orbital shaker for 2 min and then luminescence was quantified using the Envision (Perkin Elmer) plate reader. […]
Class boundaries, taken from values of inhibition at 10 µM, are as follows: range A: < 10%; range B: ≥ 10% and < 30%; range C: ≥ 30%

>>> answer_label("c1cc(N2CCCCC2)c2cc(-c3n[nH]c4ccc(-c5cncc(OC6CCCCC6)c5)cc34)[nH]c2n1")
"range B"

For this compound, which bin applies? `Fc1ccc(-c2ccnc3[nH]c(-c4n[nH]c5ccc(-c6cncc(CN7CCCC7)c6)cc45)cc23)cc1`
range B

Another: `CC(C)(C)C(=O)Nc1cncc(-c2ccc3[nH]nc(-c4cc5c(-c6ccc(F)cc6)ccnc5[nH]4)c3c2)c1`
range B

----------
System: Wnt activity (Sp5-Luc reporter, SW480 colon carcinoma cells)
Test: Wnt activity screening assay, Sp5-Luc reporter gene in SW480 cells
Type: cell-based
Details: Homo sapiens, SW480; read-out: percent inhibition at 10 μM
Protocol: The screening assay for Wnt activity is described as follows. […] SW480 colon carcinoma cells were transduced with a lentiviral vector expressing luciferase with a human Sp5 promoter consisting of a sequence of eight TCF/LEF binding sites. […] Following incubation, 20 μl of BrightGlo luminescence reagent (Promega) was added to each well of the 384-well assay plates. The plates were placed on an orbital shaker for 2 min and then luminescence was quantified using the Envision (Perkin Elmer) plate reader. […]
Items are presented alongside their recorded inhibition at 10 µM.
Give just the numeric value; % need not be written.

Answered examples (10):
>>> test_result("c1cc(-c2ccnc3[nH]c(-c4n[nH]c5ccc(-c6cncnc6)cc45)cc23)ccn1")
7.5
>>> test_result("c1cc(N2CCCCC2)c2cc(-c3n[nH]c4ccc(-c5cncc(CNCC6CCCC6)c5)cc34)[nH]c2n1")
8
>>> test_result("Cn1cc(-c2ccc3[nH]nc(-c4cc5c(-c6cccnc6)ccnc5[nH]4)c3c2)cn1")
20
>>> test_result("c1ncc(-c2ccc3[nH]nc(-c4cc5c(-c6ccsc6)ccnc5[nH]4)c3c2)cn1")
6
>>> test_result("c1ccc(-c2ccc3[nH]nc(-c4cc5c(-c6ccoc6)ccnc5[nH]4)c3c2)nc1")
11
>>> test_result("c1csc(-c2ccnc3[nH]c(-c4n[nH]c5ccc(-c6cnccn6)cc45)cc23)c1")
5.6
>>> test_result("Fc1ccc(-c2ccnc3[nH]c(-c4n[nH]c5ccc(-c6cncnc6)cc45)cc23)cc1")
11.7
>>> test_result("CN(C)Cc1cncc(-c2ccc3[nH]nc(-c4cc5c(-c6ccoc6)ccnc5[nH]4)c3c2)c1")
3.7
>>> test_result("Fc1cccc(-c2ccnc3[nH]c(-c4n[nH]c5ccc(-c6ccncc6)cc45)cc23)c1")
18
>>> test_result("c1cc(-c2ccnc3[nH]c(-c4n[nH]c5ccc(-c6cn[nH]c6)cc45)cc23)ccn1")
37

I have this compound here, `CC(C)Nc1cncc(-c2ccc3[nH]nc(-c4cc5c(-c6cccnc6)ccnc5[nH]4)c3c2)c1` , and I need its recorded inhibition at 10 µM.
38.9

Check `COc1cncc(-c2ccc3[nH]nc(-c4cc5c(-c6ccsc6)ccnc5[nH]4)c3c2)c1` too.
21

----------
System: primary human mesenchymal stem cells (hMSCs)
Test: Induction of chondrogenesis in human mesenchymal stem cells (nodule area, Rhodamine B/Nile Red)
Format: cell-based
Conditions: hMSC chondrogenesis, relative to TGF-β3 (10 ng/mL) positive control, read-out: Max. Activity as % TGF-β3 activity
Here, each record is paired with measured Emax data.
Mention the unit after the number when you answer.

Emax for Cc1ccncc1-c1ccc2[nH]nc(-c3cc4c(-c5ccoc5)ccnc4[nH]3)c2c1 [Compound 313] ?
67%

Entry CN1CCN(c2ccnc3[nH]c(-c4n[nH]c5ccc(-c6cncc(NC(=O)CC7CCNCC7)c6)cc45)cc23)CC1 [Compound 641] please
17%

Consider next the molecule CC(C)(C)CC(=O)Nc1cncc(-c2ccc3[nH]nc(-c4cc5c(-c6ccoc6)ccnc5[nH]4)c3c2)c1 [Compound 324] in the same way.
21%

And the next one, Nc1cncc(-c2ccc3[nH]nc(-c4cc5c(-c6ccccn6)ccnc5[nH]4)c3c2)c1 [Compound 143] ?
46%

Repeat for the following molecule: c1cnc2[nH]c(-c3n[nH]c4ccc(-c5cncc(CN6CCCCC6)c5)cc34)cc2c1 [Compound 267]
51%

What would you report for CN(C)c1cncc(-c2ccc3[nH]nc(-c4cc5c(-c6ccccn6)ccnc5[nH]4)c3c2)c1 [Compound 147] ?
77%
